Experiment: yeast display, Sf9 membrane polyspecificity reagent, FACS + sequencing; frameworks hold sequencing errors
MEASUREMENT_NAME: polyreactivity (PSR sort gate)

QVQLVESGGGLVQAGGSLRLSCAASGSTLTWNDMGWYRPAPGKERELVAAIDVNDGSTYYADSVKGRFTISRDNAKNTVYLQMNSLKPEDTAVYYCAEPTDYTWLDSTLADDYWGQGTQVTVSS | low polyreactivity
QVQLVESGGGLVQAGVSLRLSCDASGSILRENAMGWYRQAPGKERELVAVITRGGNTYYADSVKGRFTISRDNAKNTVYLQMNSLKPEDTAVYYCAAKRRERYGLTYGYWGQGTQVTVSS | high polyreactivity
QVQLVESGGGLVQAGGSLRLSCAASGSTFSWNTMGWYRQAPGKERELVAAINSGGSTYYADSVKGRFTISRDNAKNTVYLQMNSLKPEDTAVYYCAARTNYYGRFDYWGQGTQVTVSS | low polyreactivity
QVQLVESGGGLVQAGGSLRLSCAASGITFYSYTMGWYRQAPGKERELVAAISDNGGRTFYADSVKGRFTISRDNAKNTVYLQMNSLKPEDTAVDYCAADYSYYTSFRYDYWGQGTQVTVSS | low polyreactivity

Lookup: Given QVQLVESVVVLVQAGGSLRLSCAASGFTIPFYAMGWYRQARGKERDLVAAISQSGVRTYYADSVKGRFTISRDNAKYTVYLQMKSLKPEDTAVYFCNVAYRGALDIHSYWYPSEYWGQGTQVTVSS , state its recorded polyreactivity (PSR sort gate).
Found: high polyreactivity
